# System name: Transient receptor potential cation channel subfamily V member 1 (Homo sapiens, UniProt Q8NER1)
# Sequence (Q8NER1 whole entry): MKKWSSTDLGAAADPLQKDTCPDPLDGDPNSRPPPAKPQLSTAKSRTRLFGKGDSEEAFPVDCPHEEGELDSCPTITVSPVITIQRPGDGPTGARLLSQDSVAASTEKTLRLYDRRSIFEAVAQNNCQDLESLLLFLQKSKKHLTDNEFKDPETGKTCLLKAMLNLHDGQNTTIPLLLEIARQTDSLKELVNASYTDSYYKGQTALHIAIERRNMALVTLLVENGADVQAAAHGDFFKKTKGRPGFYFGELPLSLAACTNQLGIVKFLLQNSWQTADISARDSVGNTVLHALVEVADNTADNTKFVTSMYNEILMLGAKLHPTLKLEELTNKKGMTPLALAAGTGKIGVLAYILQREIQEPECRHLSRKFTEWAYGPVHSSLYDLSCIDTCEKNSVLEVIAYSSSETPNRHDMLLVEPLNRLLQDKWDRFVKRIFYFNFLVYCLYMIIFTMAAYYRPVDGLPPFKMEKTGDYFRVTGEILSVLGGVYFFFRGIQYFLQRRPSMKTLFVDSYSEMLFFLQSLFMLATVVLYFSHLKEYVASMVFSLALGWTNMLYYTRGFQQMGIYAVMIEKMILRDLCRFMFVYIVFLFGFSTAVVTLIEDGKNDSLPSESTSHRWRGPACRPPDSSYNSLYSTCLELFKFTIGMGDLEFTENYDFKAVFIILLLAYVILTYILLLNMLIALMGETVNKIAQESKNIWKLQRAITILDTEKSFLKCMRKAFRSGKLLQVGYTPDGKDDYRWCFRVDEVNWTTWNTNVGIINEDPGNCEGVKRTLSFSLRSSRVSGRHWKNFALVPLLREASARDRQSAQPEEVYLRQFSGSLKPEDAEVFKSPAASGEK
# Method description: Antagonist activity at human TRPV1 expressed in CHO-K1 cells assessed as inhibition of capsaicin-induced Ca2+ response treated with compound 6 mins prior to capsaicin addition and measured after overnight incubation by FLIPR assay
pKi: −log10 of the molar value.
Endpoint: pKi

Cn1ncc2c(NC(=O)NCc3cc(C(C)(C)C)nn3-c3ccc(C(F)(F)F)cc3)cccc21 ... 7.91
Cn1ncc2c(NC(=O)NCc3cc(C(F)(F)F)nn3-c3ccc(Cl)cc3)cccc21 ... 8.57

1: Cn1ncc2c(NC(=O)NCc3cc(C(F)(F)F)nn3-c3ccc(C(F)(F)F)cc3)cccc21
2: COc1ccc(-n2nc(C(C)(C)C)cc2CNC(=O)Nc2cccc3[nH]ncc23)cc1
Which entry shows the lesser value of pKi here, 1 or 2 ? Please identify the chosen entry by its label.
2
(2: 7.20, 1: 8.41)
